Tested on: Enterobacter cloacae
Measurement protocol: Antibacterial activity against gentamicin-resistant Enterobacter cloacae clinical isolate after 18 hrs by agar dilution method
Type: functional
Observable: MIC90

Example entries begin here.
Molecule	MIC90
CCN[C@@H]1C[C@H](N)[C@@H](O[C@@H]2OC(C(C)N)=CC[C@@H]2N)[C@H](O)[C@H]1O[C@H]1OC[C@](C)(O)[C@H](NC)[C@H]1O (some centres undefined) [VERTILMICIN]	> 128 µg/mL
CN[C@@H]1[C@@H](O)[C@@H](O[C@@H]2[C@@H](O)[C@H](O[C@@H]3OC(C(C)N)=CC[C@@H]3N)[C@@H](N)C[C@H]2N)OC[C@]1(C)O (some centres undefined) [VERDAMICIN]	> 128 µg/mL
CCN[C@@H]1C[C@H](N)[C@@H](O[C@H]2OC(CN)=CC[C@H]2N)[C@H](O)[C@H]1O[C@H]1OC[C@](C)(O)[C@H](NC)[C@H]1O [NETILMICIN]	> 128 µg/mL

Prompt: If you can, please state the reported MIC90 value of NCC[C@H](O)C(=O)N[C@@H]1C[C@H](N)[C@@H](O[C@H]2O[C@H](CN)[C@@H](O)[C@H](O)[C@H]2O)[C@H](O)[C@H]1O[C@H]1O[C@H](CO)[C@@H](O)[C@H](N)[C@H]1O [AMIKACIN] .
Completion: 32 µg/mL
